# Tested on: GABAA receptors
# assay-overview: Electrophysiology assay (two-electrode voltage clamp, Xenopus oocytes expressing GABAA receptors)
# Assay type: cell-based
# assay-context: positive (Pos) or negative (Neg) modulation of GABA EC10 current at a screening concentration of 10 μM; receptor subtype not stated
reported-metric: EP result

INSERT INTO results (compound, measured_on, measured_value) VALUES
  ('CN1CCN(c2ccc3[nH]cc4c(=O)n(-c5ccccc5)nc-4c3n2)CC1', 'GABAA receptors', 'Neg'),
  ('O=c1c2c[nH]c3ccc(N4CCN(c5ccccc5)CC4)nc3c-2nn1-c1ccccc1', 'GABAA receptors', 'Pos'),
  ('O=c1c2c[nH]c3ccc(N4CCNCC4)nc3c-2nn1-c1ccccn1', 'GABAA receptors', 'Pos'),
  ('CC1CN(c2ccc3[nH]cc4c(=O)n(-c5ccccn5)nc-4c3n2)CCN1 (centres unmarked)', 'GABAA receptors', 'Pos');

# input for lookup
Task: Reported EP result for GABAA receptors, given O=c1c2c[nH]c3cc(N4CCNCC4)ncc3c-2nn1-c1ccccc1 ?
Output: Neg
